# Tested on: KM12 colon
# assay.overview: NCI-60 one-dose screen, 48 h (100 = growth as untreated, 0 = no growth, -100 = all killed)
# test.conditions: 10 µM unless noted
Compounds without any hit were thinned out: in the full panel of roughly 83,000, 20% have a hit.
This section presents molecules with their documented growth values.
Please reply with the bare figure in % and do not write the unit itself.

Look over these answered cases.
[
  {
    "structure.as.smiles": "CN(C)S(=O)(=O)c1ccc(-c2nc(C(Cl)Cl)nc3cc(-c4ccc(F)cc4)nn23)cc1",
    "growth / %": 7.53
  },
  {
    "structure.as.smiles": "C#C[C@]1(O)CC[C@H]2[C@@H]3CC=C4c5sc(N6CCN(C)CC6)nc5CC[C@]4(C)[C@H]3CC[C@@]21C",
    "growth / %": 21.1
  },
  {
    "structure.as.smiles": "C1=CC(c2nn3c(-c4ccccc4)nnc3s2)=Cc2ccccc2O1",
    "growth / %": 85.5
  },
  {
    "structure.as.smiles": "CCN(CC)S(=O)(=O)c1ccc(-c2nc(C(Cl)Cl)nc3cc(-c4ccc(F)cc4)nn23)cc1",
    "growth / %": 9.84
  },
  {
    "structure.as.smiles": "CCOC(=O)c1c(NC(=O)c2ccc(C(F)(F)F)cc2)sc2c(CN3CCN(C)CC3)c(O)ccc12",
    "growth / %": -21.2
  }
]

May I ask what growth has been recorded for CN(C)c1ccc(/C=N/Nc2nc(N/N=C/c3ccc(N(C)C)cc3)nc(N3CCCCC3)n2)cc1 ? 93

May I ask what growth has been recorded for Cn1c(SCC(=O)c2ccco2)nc2ccccc2c1=O ? 86.3

May I ask what growth has been recorded for C#Cc1nc(/C=C/CCCCCCC(=O)NO)cs1 ? 74.7

May I ask what growth has been recorded for C#C[C@]1(O)CC[C@H]2[C@@H]3CC=C4c5sc(NCc6ccccc6)nc5CC[C@]4(C)[C@H]3CC[C@@]21C ? 18.9

====

# System: A498 renal
# assay.overview: NCI-60 one-dose screen, 48 h (100 = growth as untreated, 0 = no growth, -100 = all killed)
# test.conditions: 10 µM unless noted
Compounds without any hit were thinned out: in the full panel of roughly 83,000, 20% have a hit.
This section presents compounds with their documented growth values.
Please reply with the bare figure in % and do not write the unit itself.

[
  {
    "compound": "CC(C)Sc1nc(-c2ccccc2)c(C#N)c(N2CCOCC2)n1",
    "readout.label": "growth",
    "unit.abbrev": "%",
    "numeric.readout": 65.6
  },
  {
    "compound": "CN1CCN(c2ccc(Nc3nc(NCCCNS(=O)(=O)c4ccccc4)c4sccc4n3)cc2)CC1",
    "readout.label": "growth",
    "unit.abbrev": "%",
    "numeric.readout": 131
  },
  {
    "compound": "COc1ccc(/C=N/NC(=O)CSc2nc(-c3cnccn3)cc(-c3cccs3)c2C#N)cc1OC",
    "readout.label": "growth",
    "unit.abbrev": "%",
    "numeric.readout": 38.2
  }
]

Form field - read-out: growth; system: A498 renal; submitted item: CCCCCCOC(=O)c1cc(-c2ccc(F)cc2)nc2ccccc12 76.4

Form field - read-out: growth; system: A498 renal; submitted item: COC(=O)CNC(=O)c1cccc(-c2cc(=O)c3c(OC)c(OC)c(OC)cc3o2)c1 90.8

Form field - read-out: growth; system: A498 renal; submitted item: Cc1ccc(S(=O)(=O)NCCCNc2nccc(-c3[nH]c(-c4ccccc4)nc3-c3ccc(F)c(O)c3)n2)cc1 76.3

Form field - read-out: growth; system: A498 renal; submitted item: CCS(=O)(=O)Nc1ccc(C(=O)CC2(O)C(=O)Nc3ccccc32)cc1 (stereo not given) 103

Form field - read-out: growth; system: A498 renal; submitted item: CN(C)c1ccc(-c2cc(-c3c[nH]c4ccccc34)nc(N)c2C#N)cc1 -0.675

Form field - read-out: growth; system: A498 renal; submitted item: C/C(=C(/C)C1CC1CCNC1CCC(NC(=O)OC(C)(C)C)CC1)c1ccccc1 (stereo not given) 78

Form field - read-out: growth; system: A498 renal; submitted item: CCOC(=O)c1c(NCC(=O)Nc2cccc([N+](=O)[O-])c2)sc(C(C)=O)c1C -75.3

====

# System: NCI-H522 lung
# assay.overview: NCI-60 one-dose screen, 48 h (100 = growth as untreated, 0 = no growth, -100 = all killed)
# test.conditions: 10 µM unless noted
Compounds without any hit were thinned out: in the full panel of roughly 83,000, 20% have a hit.
readout.label: growth (%)
Please reply with the bare figure in % and do not write the unit itself.

Look over these answered cases.
[
  {
    "structure.as.smiles": "Cc1ccc(C(=O)CSc2nc3ccccc3c(=O)n2C)cc1",
    "growth / %": 85.3
  },
  {
    "structure.as.smiles": "C/C(=N\\NC(=O)/C=C/CC(=O)O)c1nnn(-c2ccc([N+](=O)[O-])cc2)c1C",
    "growth / %": 98.6
  }
]

May I ask what growth has been recorded for CCOP(=O)(OCC)OC[C@]12CCC(C)(C)C[C@H]1C1=CC[C@@H]3[C@@]4(C)CC[C@H](OP(=O)(OCC)OCC)C(C)(C)[C@@H]4CC[C@@]3(C)[C@]1(C)CC2 ? 51.5

May I ask what growth has been recorded for C=C(C)[C@@H]1CC[C@]2(COP(=O)(OCC)OCC)CC[C@]3(C)[C@H](CC[C@@H]4[C@@]5(C)CC[C@H](OP(=O)(OCC)OCC)C(C)(C)[C@@H]5CC[C@]43C)[C@@H]12 ? 35.5

May I ask what growth has been recorded for Cc1ccc(-c2csc(N/N=C/c3cccs3)n2)cc1 ? 73.3

May I ask what growth has been recorded for COc1cc(C(=O)c2cc(C(C)=O)c3c(C)cccn23)cc(OC)c1OC ? 90.2

May I ask what growth has been recorded for CC1=C(C)C(=O)C(Nc2cccc(C(=O)OC(C)(C)C)c2)=C(Cl)C1=O ? 81.7

May I ask what growth has been recorded for C#CCOc1cccc(/C(N)=N/C(N)=N/c2nc3ccccc3s2)c1 ? 96.9

====

# Test system: DU-145 prostate
# assay.overview: NCI-60 one-dose screen, 48 h
# test.conditions: 10 µM unless noted
Compounds without any hit were thinned out: in the full panel of roughly 83,000, 20% have a hit. Calls of active or inactive are those of the source. How the source made its calls: active means growth percent below 10; inactive means the rest.
// classify into class 1 = active, class 0 = inactive

Here's what some known entries look like.
[
  {
    "compound": "CN1CCC[C@]2(C)[C@H]3CC[C@@H]4[C@@H]5[C@H]6OC[C@@]5(CCC6(C)C)CC[C@@]4(C)[C@]3(C)CC[C@H]2C1(C)C",
    "label.class": "class 0"
  },
  {
    "compound": "C#CCn1cc(/C=N/Nc2nc(-c3ccc(Br)cc3)cs2)c2ccccc21",
    "label.class": "class 0"
  },
  {
    "compound": "Cc1cccc(N2CCN(C3=C(Cl)C(=O)c4ncccc4C3=O)CC2)c1",
    "label.class": "class 0"
  },
  {
    "compound": "CCOC(=O)c1c(NC(=O)c2ccc(C(F)(F)F)cc2)sc2c(CN3CCN(C)CC3)c(O)ccc12",
    "label.class": "class 1"
  },
  {
    "compound": "Cn1c(SCC(=O)c2ccco2)nc2ccccc2c1=O",
    "label.class": "class 0"
  }
]

Look up the recorded call for O=C(N/N=C\c1ccc(F)cc1)c1ccc2nc(-c3ccc(Br)cc3)[nH]c2c1 in this test. class 1

Look up the recorded call for COc1ccc(/C=N\NC(=O)c2cnn(CC(O)c3ccccc3)c2N)cc1OCc1ccc(Cl)cc1 (centres undefined) in this test. class 0

Look up the recorded call for CN1CCN(c2ccc(C(=O)/C=C/c3cc(F)cc(C(F)(F)F)c3)cc2)CC1 in this test. class 0

Look up the recorded call for C#Cc1nc(/C=C/C(=O)NO)cs1 in this test. class 1

Look up the recorded call for CCCCc1nc2c(N)nc3ccccc3c2n1Cc1ccc(OC)cc1 in this test. class 0

Look up the recorded call for CC(=C(c1ccc(OCCCN(C)C)cc1)c1ccc(OCCCN(C)C)cc1)c1ccc(Cl)cc1 in this test. class 0

Look up the recorded call for Cc1ccc(S(=O)(=O)NCCCNc2nccc(-c3[nH]c(-c4ccccc4)nc3-c3ccc(F)c(O)c3)n2)cc1 in this test. class 0

Look up the recorded call for CN(C)S(=O)(=O)c1ccc(-c2nc(C(Cl)Cl)nc3cc(-c4ccc(F)cc4)nn23)cc1 in this test. class 1

====

# Test system: HCT-116 colon
# assay.overview: NCI-60 one-dose screen, 48 h
# test.conditions: 10 µM unless noted
# Description: Growth inhibition of the HCT-116 human tumor cell line is measured as a screen for anti-cancer activity. Cells are grown in 96 well plates and exposed to the test compound for 48 hours. Compounds are tested at a single concentration, which is 10^-5 M for most compounds. The reported endpoint is percent growth (GI% or GIPRCNT), where numbers from 0 - 100% represent growth inhibition, and numbers from -100% - 0 represent cell death. For example, a value of 40 represents 60% growth inhibition. […]
The panel holds about 83,000 compounds, 20% with a hit somewhere; the sample as a whole holds those more often. Active and inactive are the calls of the source. The calls were made as follows: active = growth percent below 10; inactive = the rest.
// classify into yes = active, no = inactive

Here's what some known entries look like.
[
  {
    "structure.as.smiles": "O=C(Nc1cc(C(F)(F)F)cc(C(F)(F)F)c1)Nc1ccc2oc(=O)ccc2c1",
    "label.class": "yes"
  },
  {
    "structure.as.smiles": "COc1ccc([C@H]2C(=O)N(c3cc(OC)c(OC)c(OC)c3)[C@@H]2c2ccc(OC)c(O)c2)cc1",
    "label.class": "yes"
  },
  {
    "structure.as.smiles": "CN1CCN(c2ccc(C(=O)/C=C/c3cc(F)cc(C(F)(F)F)c3)cc2)CC1",
    "label.class": "no"
  },
  {
    "structure.as.smiles": "COc1ccc(/C=N/NC(=O)CSc2nc(-c3cnccn3)cc(-c3cccs3)c2C#N)cc1",
    "label.class": "no"
  }
]

Look up the recorded call for NS(=O)(=O)c1ccc(Nc2nc(N/N=C/C=C/c3ccccc3)nc(Nc3ccccc3)n2)cc1 in this test. no

Look up the recorded call for CCc1cc(OC(=O)N2CCN(CCC(C)(COC(C)(C)C)COC(C)(C)C)CC2)ccc1Nc1cc(-c2ccc(-n3cccn3)cc2)[nH]n1 in this test. no

Look up the recorded call for O=c1oc2ccc(-c3ccc(F)cc3F)cc2c(=O)n1-c1ccc(Br)cc1F in this test. no

Look up the recorded call for O=C(CSc1nc2ccccc2c(=O)n1-c1ccc(Cl)c(Cl)c1)Nc1ccc(S(=O)(=O)Nc2ccc(Cl)nn2)cc1 in this test. no

Look up the recorded call for O=S(=O)(Oc1ccc(-c2cn3ccsc3n2)cc1)c1cccc(C(F)(F)F)c1 in this test. no

Look up the recorded call for Cc1ccc2c(n1)C(=O)C(Cl)=C(Nc1cccc(C(=O)OC(C)(C)C)c1)C2=O in this test. no

Look up the recorded call for CC(=O)OC[C@@]12Oc3c(cccc3-c3ccc(O)c4c3O[C@]3(COC(C)=O)C(=C4O)C(=O)C[C@H](C)[C@@H]3OC(C)=O)C(O)=C1C(=O)C[C@H](C)[C@@H]2OC(C)=O in this test. no

Look up the recorded call for Clc1ccc2[nH]cc(-c3cncn3CCc3ccc4c(c3)OCO4)c2c1 in this test. no
